System: Streptococcus pyogenes
assay info: Antibacterial activity against penicillin-susceptible Streptococcus pyogenes after 24 hrs by broth microdilution method
Type: functional
MIC listing for selected compounds.
Please give a number only; it is taken to be in mg/L.

input: If you can, please state the reported MIC value of `COc1cc(-c2ccc(-c3ccccc3)cc2)cc2c3ccccc3c[n+](C)c12.[Cl-]` .
output: 1

input: Which MIC value is on record for `C[n+]1cc2ccccc2c2cc(-c3ccc(OC(F)(F)F)cc3)ccc21.[Cl-]` ?
output: 4

input: Requested read-out: MIC. Entry: `COc1ccc(-c2ccc3c(c2)c2ccccc2c[n+]3C)cc1.[Cl-]`
output: 4
